- tgt: Beta-2 adrenergic receptor (Homo sapiens)
- procedure summary: Displacement of [3H]-CGP 12177 from human beta-2 adrenergic receptor expressed in CHOK1 cells
- Type: cell-based, CHO-K1
Threshold check on Kd: strictly below 1 nM is Criterion met; on or above 1 nM is Criterion not met.

C=CCc1ccccc1OCC(O)CNCCNC(=O)CCCCCNC(=O)COc1ccc(/C=C/c2ccc3n2[B-](F)(F)[N+]2=C(c4cccs4)C=CC2=C3)cc1 (racemic): Criterion not met
O=C(CCCCCNC(=O)COc1ccc(/C=C/c2ccc3n2[B-](F)(F)[N+]2=C(c4cccs4)C=CC2=C3)cc1)NCCCCNC[C@H](O)COc1cccc2ccccc12: Criterion met

Hi there! Is Kd for `C=CCc1ccccc1OC[C@@H](O)CNCCOCCOCCNC(=O)CCCCCNC(=O)COc1ccc(/C=C/c2ccc3n2[B-](F)(F)[N+]2=C(c4cccs4)C=CC2=C3)cc1` below 1 nM, do you know? Criterion met

Please indicate whether the reported Kd of C=CCc1ccccc1OCC(O)CNCCOCCOCCNC(=O)CCCCCNC(=O)COc1ccc(/C=C/c2ccc3n2[B-](F)(F)[N+]2=C(c4cccs4)C=CC2=C3)cc1 (racemic) is strictly below 1 nM. Criterion not met

###

- tgt: Beta-1 adrenergic receptor (Homo sapiens, UniProt P08588)
- Sequence (P08588 whole entry): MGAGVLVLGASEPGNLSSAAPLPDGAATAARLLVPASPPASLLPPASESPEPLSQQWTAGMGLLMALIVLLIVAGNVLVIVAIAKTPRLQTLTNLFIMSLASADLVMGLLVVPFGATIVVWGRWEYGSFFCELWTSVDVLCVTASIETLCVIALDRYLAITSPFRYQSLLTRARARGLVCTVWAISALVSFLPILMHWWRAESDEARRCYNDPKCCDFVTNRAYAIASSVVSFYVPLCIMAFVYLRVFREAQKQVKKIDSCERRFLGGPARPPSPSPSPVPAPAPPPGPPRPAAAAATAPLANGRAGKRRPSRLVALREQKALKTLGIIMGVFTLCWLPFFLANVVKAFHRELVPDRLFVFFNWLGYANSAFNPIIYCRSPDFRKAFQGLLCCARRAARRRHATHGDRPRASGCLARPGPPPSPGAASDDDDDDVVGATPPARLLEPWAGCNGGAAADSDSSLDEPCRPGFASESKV
- procedure summary: biochemical
- Description: Displacement of [3H]-CGP 12177 from human beta-1 adrenergic receptor expressed in CHOK1 cells
Each entry below lists one item and its recorded pKd value.
Lab note — pKd values are minus log10 of concentrations in M.

These recorded examples may help you get a feel for the data.
O=C(CCCCCNC(=O)COc1ccc(/C=C/c2ccc3n2[B-](F)(F)[N+]2=C(c4cccs4)C=CC2=C3)cc1)NCCCCNC[C@H](O)COc1cccc2ccccc12: 7.48
O=C(CCCCCNC(=O)COc1ccc(/C=C/c2ccc3n2[B-](F)(F)[N+]2=C(c4cccs4)C=CC2=C3)cc1)NCCCCCCCCNC[C@H](O)COc1cccc2ccccc12: 6.73

Now, please, on to the next compound.
Quick one: pKd for `O=C(CCCCCNC(=O)COc1ccc(/C=C/c2ccc3n2[B-](F)(F)[N+]2=C(c4cccs4)C=CC2=C3)cc1)NCCNC[C@H](O)COc1cccc2ccccc12` ? 7.44

###

- tgt: Beta-2 adrenergic receptor (Homo sapiens)
- procedure summary: Displacement of [3H]-CGP 12177 from human beta-2 adrenergic receptor expressed in CHOK1 cells
- Type: cell-based, CHO-K1
Listed next: entries and their corresponding Kd.
Provide only the numeric value, understood in nM.

O=C(CCCCCNC(=O)COc1ccc(/C=C/c2ccc3n2[B-](F)(F)[N+]2=C(c4cccs4)C=CC2=C3)cc1)NCCCCNCC(O)COc1cccc2ccccc12 (racemic): 1.35

# lookup: Kd of O=C(CCCCCNC(=O)COc1ccc(/C=C/c2ccc3n2[B-](F)(F)[N+]2=C(c4cccs4)C=CC2=C3)cc1)NCCCCCCCCNCC(O)COc1cccc2ccccc12 (racemic) 5.75

So what does the record say about Kd for O=C(CCCCCNC(=O)COc1ccc(/C=C/c2ccc3n2[B-](F)(F)[N+]2=C(c4cccs4)C=CC2=C3)cc1)NCCNCC(O)COc1cccc2ccccc12 (racemic) ? 2.75

###

- tgt: Beta-2 adrenergic receptor (Homo sapiens)
- procedure summary: Antagonist activity at human beta-2 adrenergic receptor expressed in salbutamol-stimulated CHO-K1 cells assessed as CRE-SPAP level by […]
- Format: functional, cell-based
Recorded pKd by entry
Kindly note that pKd refers to -log10 of the concentration in mol/L and answer with the value alone.

Past entries and their recorded results:
O=C(CCCCCNC(=O)COc1ccc(/C=C/c2ccc3n2[B-](F)(F)[N+]2=C(c4cccs4)C=CC2=C3)cc1)NCCCCCCCCNCC(O)COc1cccc2ccccc12 (racemic): 8.60
O=C(CCCCCNC(=O)COc1ccc(/C=C/c2ccc3n2[B-](F)(F)[N+]2=C(c4cccs4)C=CC2=C3)cc1)NCCOCCOCCNCC(O)COc1cccc2ccccc12 (racemic): 9.36

// moving on: another record for pKd
Report pKd for `C=CCc1ccccc1OC[C@@H](O)CNCCOCCOCCNC(=O)CCCCCNC(=O)COc1ccc(/C=C/c2ccc3n2[B-](F)(F)[N+]2=C(c4cccs4)C=CC2=C3)cc1` please. 9.37

###

- tgt: Beta-1 adrenergic receptor (Homo sapiens, UniProt P08588)
- procedure summary: Antagonist activity at human beta-1 adrenergic receptor site 2 expressed in CGP 12177-stimulated CHO-K1 cells assessed as CRE-SPAP level by […]
reported metric: pKd
Note on units: pKd is unitless, being -log10 of a concentration expressed in mol/L.

Solved cases below.
O=C(CCCCCNC(=O)COc1ccc(/C=C/c2ccc3n2[B-](F)(F)[N+]2=C(c4cccs4)C=CC2=C3)cc1)NCCNC[C@H](O)COc1cccc2ccccc12: 7.04
C=CCc1ccccc1OCC(O)CNCCNC(=O)CCCCCNC(=O)COc1ccc(/C=C/c2ccc3n2[B-](F)(F)[N+]2=C(c4cccs4)C=CC2=C3)cc1 (racemic): 6.92

Could you now look at the following compound, please?
Missing value: pKd, Beta-1 adrenergic receptor (Homo sapiens, UniProt P08588), entry `O=C(CCCCCNC(=O)COc1ccc(/C=C/c2ccc3n2[B-](F)(F)[N+]2=C(c4cccs4)C=CC2=C3)cc1)NCCOCCOCCNC[C@H](O)COc1cccc2ccccc12` . Fill in? 7.17

###

- tgt: Beta-2 adrenergic receptor (Homo sapiens, UniProt P07550)
- Sequence (P07550 whole entry): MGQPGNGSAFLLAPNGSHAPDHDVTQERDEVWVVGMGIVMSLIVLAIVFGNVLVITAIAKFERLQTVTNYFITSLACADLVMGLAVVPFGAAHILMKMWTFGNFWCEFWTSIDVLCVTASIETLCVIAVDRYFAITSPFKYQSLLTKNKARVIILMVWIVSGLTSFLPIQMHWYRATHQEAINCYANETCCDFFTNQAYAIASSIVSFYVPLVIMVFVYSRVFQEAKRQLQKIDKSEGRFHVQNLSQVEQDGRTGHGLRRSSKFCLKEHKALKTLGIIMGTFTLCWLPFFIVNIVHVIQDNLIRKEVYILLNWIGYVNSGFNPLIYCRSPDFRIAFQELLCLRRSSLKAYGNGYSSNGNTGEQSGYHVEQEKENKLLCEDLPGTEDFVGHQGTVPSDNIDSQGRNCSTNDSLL
- procedure summary: Displacement of [3H]-CGP 12177 from human beta-2 adrenergic receptor expressed in CHOK1 cells
- Type: cell-based, CHO-K1
Parameter: Kd. Scope: all listed entries.
Put down the number, then write its unit next to it.

Field: example entries. Status: answers known.
O=C(CCCCCNC(=O)COc1ccc(/C=C/c2ccc3n2[B-](F)(F)[N+]2=C(c4cccs4)C=CC2=C3)cc1)NCCNCC(O)COc1cccc2[nH]ccc12 (racemic): 46.8 nM
O=C(CCCCCNC(=O)COc1ccc(/C=C/c2ccc3n2[B-](F)(F)[N+]2=C(c4cccs4)C=CC2=C3)cc1)NCCOCCOCCNCC(O)COc1cccc2[nH]ccc12 (racemic): 11 nM

// moving on: another record for Kd
// returns reported Kd for input `O=C(CCCCCNC(=O)COc1ccc(/C=C/c2ccc3n2[B-](F)(F)[N+]2=C(c4cccs4)C=CC2=C3)cc1)NCCOCCOCCNC[C@H](O)COc1cccc2ccccc12` 0.617 nM

###

Parameter: Kd. Scope: all listed entries.
- tgt: Beta-3 adrenergic receptor (Homo sapiens)
- procedure summary: Displacement of [3H]-CGP 12177 from human beta-3 adrenergic receptor expressed in CHOK1 cells
- Type: cell-based, CHO-K1
- Sequence (P13945 whole entry): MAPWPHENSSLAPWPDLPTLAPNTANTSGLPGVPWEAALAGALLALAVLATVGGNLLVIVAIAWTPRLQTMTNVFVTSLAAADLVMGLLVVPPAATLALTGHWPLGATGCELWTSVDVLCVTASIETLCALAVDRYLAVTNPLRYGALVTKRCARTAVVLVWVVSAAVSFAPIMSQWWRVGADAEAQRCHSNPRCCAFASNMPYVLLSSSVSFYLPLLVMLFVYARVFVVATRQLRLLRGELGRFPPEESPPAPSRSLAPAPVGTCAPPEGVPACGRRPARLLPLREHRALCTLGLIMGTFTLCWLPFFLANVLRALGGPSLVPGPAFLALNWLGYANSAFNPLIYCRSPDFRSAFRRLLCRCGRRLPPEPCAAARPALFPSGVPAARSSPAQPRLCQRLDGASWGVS
The response must be a number in µM with no trailing unit.

Worked examples follow.
O=C(CCCCCNC(=O)COc1ccc(/C=C/c2ccc3n2[B-](F)(F)[N+]2=C(c4cccs4)C=CC2=C3)cc1)NCCNCC(O)COc1cccc2[nH]ccc12 (racemic): 0.331
O=C(CCCCCNC(=O)COc1ccc(/C=C/c2ccc3n2[B-](F)(F)[N+]2=C(c4cccs4)C=CC2=C3)cc1)NCCOCCOCCNCC(O)COc1cccc2ccccc12 (racemic): 0.295

What value of measured Kd is listed for `O=C(CCCCCNC(=O)COc1ccc(/C=C/c2ccc3n2[B-](F)(F)[N+]2=C(c4cccs4)C=CC2=C3)cc1)NCCNC[C@H](O)COc1cccc2ccccc12` ? 0.0447

###

Here the recorded Kd is given for each entry.
- tgt: Beta-1 adrenergic receptor (Homo sapiens)
- procedure summary: Antagonist activity at human beta-1 adrenergic receptor site 1 expressed in cimeterol-stimulated CHO-K1 cells assessed as CRE-SPAP level by […]
- Assay type: functional, cell-based
Report only the number, with the unit µM understood.

O=C(CCCCCNC(=O)COc1ccc(/C=C/c2ccc3n2[B-](F)(F)[N+]2=C(c4cccs4)C=CC2=C3)cc1)NCCCCCCCCNC[C@H](O)COc1cccc2ccccc12: 0.0525
O=C(CCCCCNC(=O)COc1ccc(/C=C/c2ccc3n2[B-](F)(F)[N+]2=C(c4cccs4)C=CC2=C3)cc1)NCCCCNCC(O)COc1cccc2ccccc12 (racemic): 0.0309
O=C(CCCCCNC(=O)COc1ccc(/C=C/c2ccc3n2[B-](F)(F)[N+]2=C(c4cccs4)C=CC2=C3)cc1)NCCNC[C@H](O)COc1cccc2ccccc12: 0.00832

Please report the recorded Kd for `O=C(CCCCCNC(=O)COc1ccc(/C=C/c2ccc3n2[B-](F)(F)[N+]2=C(c4cccs4)C=CC2=C3)cc1)NCCOCCOCCNC[C@H](O)COc1cccc2ccccc12` . 0.00347

###

- tgt: Beta-3 adrenergic receptor (Homo sapiens, UniProt P13945)
- procedure summary: Partial agonist activity at human beta-3 adrenergic receptor expressed in CHOK1 cells assessed as CRE-SPAP production at 1 uM by […] relative to 10 uM isoprenaline
- Assay type: functional, cell-based
- conditions: CHO-K1
- Sequence (P13945 whole entry, looked up): as the sequence (P13945 whole entry) above
reported metric: Activity (%)
Give just the number in %; leave the unit off.

Answered examples (2):
C=CCc1ccccc1OC[C@@H](O)CNCCOCCOCCNC(=O)CCCCCNC(=O)COc1ccc(/C=C/c2ccc3n2[B-](F)(F)[N+]2=C(c4cccs4)C=CC2=C3)cc1: 63.5
C=CCc1ccccc1OCC(O)CNCCOCCOCCNC(=O)CCCCCNC(=O)COc1ccc(/C=C/c2ccc3n2[B-](F)(F)[N+]2=C(c4cccs4)C=CC2=C3)cc1 (racemic): 49.6

Now let's try a different one.
Entry C=CCc1ccccc1OCC(O)CNCCNC(=O)CCCCCNC(=O)COc1ccc(/C=C/c2ccc3n2[B-](F)(F)[N+]2=C(c4cccs4)C=CC2=C3)cc1 (racemic) , system Beta-3 adrenergic receptor (Homo sapiens, UniProt P13945): what Activity was measured? 60.6
